tested.system: Aspartate--tRNA(Asp/Asn) ligase (Mycobacterium tuberculosis (strain ATCC 25618 / H37Rv)) (UniProt P9WFW3); note: in the data most compounds retested in dose-response had high values
Sequence (P9WFW3 whole entry): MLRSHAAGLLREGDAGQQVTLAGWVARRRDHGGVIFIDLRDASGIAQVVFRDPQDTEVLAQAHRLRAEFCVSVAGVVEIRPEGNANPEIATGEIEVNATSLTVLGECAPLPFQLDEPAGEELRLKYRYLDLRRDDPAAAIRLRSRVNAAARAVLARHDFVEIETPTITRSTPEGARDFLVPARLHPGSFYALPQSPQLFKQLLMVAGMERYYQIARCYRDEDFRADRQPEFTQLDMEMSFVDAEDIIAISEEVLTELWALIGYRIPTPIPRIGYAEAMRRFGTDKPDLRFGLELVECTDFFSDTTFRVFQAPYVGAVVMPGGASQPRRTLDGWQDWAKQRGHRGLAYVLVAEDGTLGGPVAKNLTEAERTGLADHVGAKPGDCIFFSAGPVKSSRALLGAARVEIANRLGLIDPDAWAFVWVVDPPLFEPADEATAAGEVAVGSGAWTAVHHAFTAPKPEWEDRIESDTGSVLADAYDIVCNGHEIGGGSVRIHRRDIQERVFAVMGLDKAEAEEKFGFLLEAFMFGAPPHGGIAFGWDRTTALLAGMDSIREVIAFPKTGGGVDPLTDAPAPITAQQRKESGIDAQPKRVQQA
assay.summary: Assay for Asp RNA synthetase-1 from Mycobacterium tuberculosis
Type: functional
Set-up: scale not given: direction of the effect not stated beside the values
stated.conditions: 30 µM
Kindly supply the reported Percent Effect values for the records listed here.

Problem: Please give measured Percent Effect of the following entry: O=C(CCc1nc2cccnc2[nH]1)NCc1ccc2c(c1)OCO2
Solution: 0.0581%

Problem: Answer with the recorded Percent Effect for the molecule listed here: CC(NC(=O)c1cc(-c2cccc(Cl)c2)no1)C(=O)N1CCCC1 (centres undefined)
Solution: 0.15%

Problem: Quote Percent Effect reported for Cc1noc(C(C)N2CCN(CCCN3CCCC3=O)CC2)n1 (centres undefined) please.
Solution: 0.409%

Problem: Give Percent Effect for the following molecule: Cc1ccc(C(=O)N2CCCC3(CCCC(=O)N3C)C2)cc1F (centres undefined)
Solution: 3.71%

Problem: Please give the documented Percent Effect of O=C1CCc2cc(C(=O)NCc3ccc(-n4cncn4)nc3)ccc2N1
Solution: -5.04%

Problem: Give the measured Percent Effect for COCC1CN(Cc2ccc(C)o2)Cc2nnn(CC3CC3)c21 (centres undefined)
Solution: -0.416%

Problem: Using the record for Cc1nc2c(c(C)c1CC(=O)Nc1cccc(C#N)c1)c(=O)[nH]n2C , state its measured Percent Effect.
Solution: 4.67%

Problem: Identify the reported Percent Effect for the following entry. CCc1nc2n(n1)CC(NCc1noc(-c3ccccc3)n1)CC2 (centres undefined)
Solution: -2.95%

Problem: State its Percent Effect for this molecule: O=C(c1ccc(F)cc1)N1C[C@H]2CCC[C@@]2(COCc2ccccn2)C1
Solution: 9.3%

---

tested.system: Shiga toxin 2 (Escherichia coli O157:H7) (UniProt P09385+P09386)
assay.summary: E. coli 0.157:H7 Shiga Toxin SOP - stx2 screening assay
Type: functional
Parameters: scale not given: direction of the effect not stated beside the values
stated.conditions: 30 µM
Exercise: for every item that follows, state its recorded Percent Effect.
Report the figure in % without appending any unit label.

Problem: Tell us which Percent Effect value is on record for CC(C)(C)C(=O)NCCc1ccn(-c2ccccc2)n1
Solution: -32.2

Problem: Annotate the compound Cc1ccc(NC(=O)N2CCN(Cc3noc(C4CC4)n3)CC2)cc1 with its measured Percent Effect.
Solution: -9.31

Problem: Identify measured Percent Effect associated with CN(C)C(CNC(=O)c1cc2c([nH]c1=O)CCCC2=O)c1ccsc1 (stereo not given)
Solution: -21.1

Problem: Retrieve Percent Effect measured for CN(C)c1ncc2c(n1)C1(CCN(Cc3ccccc3)C1)COC2 (stereo not given) and print it.
Solution: -67

Problem: # return recorded Percent Effect for input COc1ccc2c(c1)OCC(CNC(=O)c1ccncc1)C2 (stereo not given)
Solution: 17.7

Problem: Find the measured Percent Effect of Cc1cc(-c2nnc(SCC(=O)O)n2C(C)c2ccccc2)nn1C (stereo not given) and report it.
Solution: 2.98

Problem: Given the compound CCOc1ccccc1-c1noc(CN(C)Cc2cnn(C)c2)n1 , write its reported Percent Effect.
Solution: -14

Problem: Return reported Percent Effect. Input compound: CCn1nc(C)c(CCNC(=O)C2CCCN(C(=O)N(C)C)C2)c1C (stereo not given)
Solution: 14.2

Problem: Give the reported Percent Effect for this compound. CC(C)S(=O)(=O)NCC1CCCN(C(=O)c2ccc3c(c2)OCCO3)C1 (stereo not given)
Solution: -18.1

Problem: Write down Percent Effect measured for item O=C(Nc1nc2c(s1)CN(S(=O)(=O)C1CC1)CC2)c1c(F)cccc1F
Solution: 2.22

Problem: Supply Percent Effect value. Item: Cc1cc(-c2cnc(N3CCN(C)CC3)nc2-c2ccc(C)s2)on1
Solution: -24.7

Problem: Please indicate Percent Effect recorded for OC1(Cn2ccc3ncccc32)CCN(Cc2ccccn2)CC1
Solution: -31.8

Problem: Return Percent Effect for the following compound: Cc1nn(C)c(C)c1CNCc1ccc(N2CCOCC2)nc1
Solution: -24.1

Problem: Give the measured Percent Effect for CN(C)S(=O)(=O)N1CC[C@]2(C[C@H](Oc3ncccc3F)CO2)C1
Solution: 2.42

Problem: Please give the documented Percent Effect of Cc1cc2c(=O)n3c(nc2s1)CCN(Cc1cnc(C(C)C)nc1)CC3
Solution: 14.8

Problem: Using the record for COc1ccccc1CC(=O)N1CC[C@@]2(CCCO2)[C@@H](OC)C1 , state its measured Percent Effect.
Solution: 52.7

Problem: Recall and state the measured Percent Effect for CN(C)C(=O)[C@@H]1C[C@@H]2CCN(Cc3ccc4c(c3)OCO4)C[C@@H]2O1 .
Solution: 3.86

Problem: Specify Percent Effect for COCCOc1ccc(NC(=O)N2CCCC2c2cc(C)no2)cn1 (stereo not given) and stop.
Solution: 25.9

Problem: Tell me Percent Effect reported for CN(Cc1ccsc1)C(=O)c1cccc(S(=O)(=O)NC(C)(C)C)c1
Solution: -33.3

Problem: Please report the measured Percent Effect for CC(C(=O)NCc1ccnc(N2CCN(C)CC2)c1)n1cccn1 (stereo not given)
Solution: 6

Problem: Specify measured Percent Effect for Cc1ncsc1CN1CC[C@H]2C(=O)N(c3ccccc3)CCO[C@H]2C1 .
Solution: 3.87

Problem: Please indicate Percent Effect recorded for COc1ccc(NC(=O)CNc2ccc(Br)cc2F)cc1
Solution: -79.8

Problem: Using known records, supply Percent Effect for COc1cc2cc(C(=O)N[C@@H](C)C(=O)O)n(C)c2c(OC)c1OC
Solution: -30.8

Problem: Could you please provide reported Percent Effect for Cc1ccc(F)c(OC2(C(=O)O)CCN(C(=O)N3CCCC3)CC2)c1 ? Thanks!
Solution: -2.51

Problem: Give Percent Effect for the following compound: Cc1cnn(CCNCc2cccnc2)c1
Solution: -3.36

Problem: Quick one: give measured Percent Effect for Cc1ccc2c(n1)N(C)CCN(C(=O)C1CC1)C2
Solution: -13.9

Problem: Quickly give me recorded Percent Effect for Cc1nn(C)c(C)c1NC(=O)CN1CCc2c(nc(C(C)C)n2C)C1
Solution: 5.73

Problem: Read the entry COCCC(=O)N1CC[C@@H](N(C)C)[C@@H]1Cc1ccccc1 and write its reported Percent Effect.
Solution: 2.6

Problem: State its Percent Effect: Cc1cc(NC(=O)CCN2CCCC2Cn2cncn2)no1 (stereo not given)
Solution: -32.1

Problem: Return value of Percent Effect for input COC(=O)c1ccc(C2CC(=O)Oc3cc(C)[nH]c(=O)c32)cc1 (stereo not given) , no commentary.
Solution: -8.85

Problem: Give Percent Effect for the following compound: COCCc1noc(CN2CCCC2Cn2cc(C)cn2)n1 (stereo not given)
Solution: -2.29

Problem: Return value of Percent Effect for input Cc1nccn1-c1cccc(C2CCCN2S(=O)(=O)c2cn(C)cn2)n1 (stereo not given) , no commentary.
Solution: 45.9

Problem: Look up and state reported Percent Effect for CCOCC(=O)NC1(c2cccc(Br)c2)CC1
Solution: -5.68

Problem: Identify the reported Percent Effect for the following entry. Cc1ccc(NC2CCN(C(=O)CCc3ccco3)CC2)nn1
Solution: 19.2

Problem: Identify measured Percent Effect corresponding to CN1CC(=O)N(c2cccc(F)c2)CC12CCN(Cc1cccnc1)C2 (stereo not given)
Solution: -14.7
